tested on: T1, human MSLN-R3-his protein (human, UniProt Q13421 487-598)
T1 construct: Made in HEK293E cells, purified on nickel column; also called hMSLN-R3-his; human MSLN-R3 protein; not shown: His tag
T1 sequence (Q13421 495-606): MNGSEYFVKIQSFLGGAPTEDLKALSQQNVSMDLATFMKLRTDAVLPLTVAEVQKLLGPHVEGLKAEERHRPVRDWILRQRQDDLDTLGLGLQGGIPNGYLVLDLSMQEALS
procedure text: ELISA, coated antigen, antibody 0.0001 nM
endpoint label: OD450
Returns: the value as a bare number; no unit string appended.

• Tab106 (YP218, hIgG1) (antibody, V domains shown, Control: YP218 VH and VL recombined into human IgG1 CH and CL expression vectors; also called YP218 human IgG1 antibody) VH: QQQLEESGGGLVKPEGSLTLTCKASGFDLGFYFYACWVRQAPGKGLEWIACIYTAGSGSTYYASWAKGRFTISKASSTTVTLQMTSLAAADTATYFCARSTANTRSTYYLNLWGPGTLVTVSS VL: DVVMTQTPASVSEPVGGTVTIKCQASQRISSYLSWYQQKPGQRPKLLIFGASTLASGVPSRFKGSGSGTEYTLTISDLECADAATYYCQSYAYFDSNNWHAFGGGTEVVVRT = 0.05
• S009-F6-76.1 chimeric antibody (antibody, human IgG1, kappa, V domains shown, Human-murine chimeric antibody, human IgG1/kappa constant regions) VH: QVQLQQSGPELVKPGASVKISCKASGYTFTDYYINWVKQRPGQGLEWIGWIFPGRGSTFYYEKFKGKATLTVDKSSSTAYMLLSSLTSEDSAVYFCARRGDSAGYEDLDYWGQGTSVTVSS VL: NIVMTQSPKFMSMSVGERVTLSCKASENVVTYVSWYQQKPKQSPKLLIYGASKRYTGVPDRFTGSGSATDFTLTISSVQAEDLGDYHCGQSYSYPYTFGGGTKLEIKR = 0.04
• S009-F4-127.10 chimeric antibody (antibody, human IgG1, kappa, V domains shown, Human-murine chimeric antibody, human IgG1/kappa constant regions) VH: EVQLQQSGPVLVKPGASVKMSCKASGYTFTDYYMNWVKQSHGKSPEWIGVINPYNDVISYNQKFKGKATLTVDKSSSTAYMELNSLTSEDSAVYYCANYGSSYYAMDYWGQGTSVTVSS VL: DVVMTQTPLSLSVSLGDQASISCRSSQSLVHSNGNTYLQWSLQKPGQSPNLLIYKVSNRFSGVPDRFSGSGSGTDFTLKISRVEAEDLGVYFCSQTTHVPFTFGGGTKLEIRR = 0.06
• S009-F4-94.15 chimeric antibody (antibody, human IgG1, kappa, V domains shown, Human-murine chimeric antibody: murine VH/VL on human IgG1 heavy and kappa light constant regions) VH: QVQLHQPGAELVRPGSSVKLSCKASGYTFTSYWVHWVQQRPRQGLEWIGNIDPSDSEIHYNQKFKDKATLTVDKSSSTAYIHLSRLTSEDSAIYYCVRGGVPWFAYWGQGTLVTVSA VL: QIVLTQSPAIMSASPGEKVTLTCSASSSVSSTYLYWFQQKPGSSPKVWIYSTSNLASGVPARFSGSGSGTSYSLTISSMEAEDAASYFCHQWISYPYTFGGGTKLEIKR = 0.05

--- query ---
So for S009-F5-9.16 chimeric antibody (antibody, human IgG1, kappa, V domains shown, Human-murine chimeric antibody, human IgG1/kappa constant regions) VH: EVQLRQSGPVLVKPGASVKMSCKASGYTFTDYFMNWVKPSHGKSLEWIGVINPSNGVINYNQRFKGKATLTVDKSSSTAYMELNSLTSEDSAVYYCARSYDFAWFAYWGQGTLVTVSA VL: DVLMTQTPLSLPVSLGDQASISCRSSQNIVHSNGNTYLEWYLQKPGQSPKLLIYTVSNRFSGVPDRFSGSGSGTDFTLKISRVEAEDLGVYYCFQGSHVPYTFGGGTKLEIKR , the logged OD450 turned out to be 0.12

Where do the numbers come from? From patent US20250250357A1.
